- tested.on: recombinant CYP-11 (Homo sapiens)
- Sequence (P15538 25-503): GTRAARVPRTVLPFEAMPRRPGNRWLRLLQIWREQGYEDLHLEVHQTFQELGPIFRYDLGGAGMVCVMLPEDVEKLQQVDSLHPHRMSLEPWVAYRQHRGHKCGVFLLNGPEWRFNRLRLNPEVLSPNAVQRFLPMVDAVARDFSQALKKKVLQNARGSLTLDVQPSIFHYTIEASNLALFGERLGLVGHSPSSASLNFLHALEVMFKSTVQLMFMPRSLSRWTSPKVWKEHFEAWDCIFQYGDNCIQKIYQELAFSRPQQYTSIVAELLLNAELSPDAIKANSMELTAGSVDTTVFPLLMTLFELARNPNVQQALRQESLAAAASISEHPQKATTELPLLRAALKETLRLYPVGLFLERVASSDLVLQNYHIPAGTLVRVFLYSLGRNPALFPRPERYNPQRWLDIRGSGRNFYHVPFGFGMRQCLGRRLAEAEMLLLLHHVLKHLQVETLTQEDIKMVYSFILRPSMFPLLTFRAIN
- test.details: Cyp11 assay: AD293 cells over-expressing recombinant CYP-11, cortisol formation from 11-deoxycortisol by LC/MS
Can you tell me IC50 for the items I'm about to list?
One number for each entry, in nM.

Some compounds with known IC50 results, for comparison:
CCOC(=O)CNC(=O)N1CCN(c2ccc(CO[C@H]3CO[C@](Cn4ccnc4)(c4ccccc4Cl)OC3)cc2)CC1; 107
CC(=O)N1CCN(c2ccc(CO[C@H]3CO[C@](Cn4ccnc4)(c4ccccc4Cl)OC3)cc2)CC1; 521

# return IC50 for each item in the list
1. N#Cc1cccc(S(=O)(=O)N2CCN(c3ccc(CO[C@H]4CO[C@](Cn5ccnc5)(c5ccc(Cl)cc5Cl)OC4)cc3)CC2)c1
2. Clc1ccc([C@]2(Cn3ccnc3)OC[C@@H](OCc3ccc(-c4ccncc4)cc3)CO2)c(Cl)c1
3. CCOC(=O)CNC(=O)N1CCN(c2ccc(CO[C@H]3CO[C@@](Cn4ccnc4)(c4ccccc4Cl)OC3)cc2)CC1
4. O=S(=O)(c1cccc(OC(F)(F)F)c1)N1CCN(c2ccc(CO[C@H]3CO[C@](Cn4ccnc4)(c4ccc(Cl)cc4Cl)OC3)cc2)CC1
5. O=S(=O)(C1CC1)N1CCN(c2ccc(CO[C@H]3CO[C@](Cn4ccnc4)(c4ccc(Cl)cc4Cl)OC3)cc2)CC1
6. CS(=O)(=O)N1CCN(c2ccc(CO[C@H]3CO[C@](Cn4ccnc4)(c4ccccc4Cl)OC3)cc2)CC1
7. COCCOC(=O)N1CCN(c2ccc(CO[C@H]3CO[C@](Cn4ccnc4)(c4ccccc4Cl)OC3)cc2)CC1
8. O=S(=O)(c1cccnc1)N1CCN(c2ccc(CO[C@H]3CO[C@](Cn4ccnc4)(c4ccc(Cl)cc4Cl)OC3)cc2)CC1

Result ::
37
23
5800
13
6
100
140
12

# return IC50 for each item in the list
1. CC(=O)N1CCN(c2ccc(CO[C@H]3CO[C@@](Cn4ccnc4)(c4ccc(Cl)cc4Cl)OC3)cc2)CC1
2. CN(C)C(=O)N1CCN(c2ccc(CO[C@H]3CO[C@](Cn4ccnc4)(c4ccccc4Cl)OC3)cc2)CC1

Result ::
12
70

====

- tested.on: recombinant CYP-21 (Homo sapiens, UniProt P08686)
- test.details: Cyp21 assay: AD293 cells over-expressing recombinant CYP-21, 11-deoxycortisol formation from 17α-OH Progesterone by LC/MS
Can you tell me pIC50 for the items I'm about to list?
Numbers only, as −log10 of the molar value.

Some compounds with known pIC50 results, for comparison:
O=S(=O)(c1cccnc1)N1CCN(c2ccc(CO[C@H]3CO[C@](Cn4ccnc4)(c4ccc(Cl)cc4Cl)OC3)cc2)CC1 [Example 500025]; 6.56
CC(C)S(=O)(=O)N1CCN(c2ccc(CO[C@H]3CO[C@](Cn4ccnc4)(c4ccc(Cl)cc4Cl)OC3)cc2)CC1 [Example 500020]; 6.96

# ---- query compound ----
Query :: Field request: pIC50 | item: COCCOC(=O)N1CCN(c2ccc(CO[C@H]3CO[C@](Cn4ccnc4)(c4ccccc4Cl)OC3)cc2)CC1 [Example 510014]
Result :: 6.24

====

- test.details: Pharmacokinetic studies in the guinea pig (1 mg/kg IV, 10 mg/kg oral)
- Type: in vivo
- assay.context: oral, 10 mg/kg
readout.type: Tmax
State the value with its unit after it.

Query :: Field request: Tmax | item: CC(=O)N1CCN(c2ccc(CO[C@H]3CO[C@](Cn4ccnc4)(c4ccc(Cl)cc4Cl)OC3)cc2)CC1 [drawing 113]
Result :: 3 h

====

Can you tell me IC50 for the items I'm about to list?
- tested.on: recombinant CYP-11 (Homo sapiens, UniProt P15538)
- test.details: Cyp11 assay: AD293 cells over-expressing recombinant CYP-11, cortisol formation from 11-deoxycortisol by LC/MS
One number for each entry, in nM.

# return IC50 for each item in the list
1. CC(=O)N1CCN(c2ccc(CO[C@H]3CO[C@](Cn4ccnc4)(c4ccc(Cl)cc4Cl)OC3)cc2)CC1 [drawing 112]
2. CC(=O)N1CCN(c2ccc(CO[C@H]3CO[C@](Cn4ccnc4)(c4ccc(Cl)cc4Cl)OC3)cc2)CC1 [Example 500015]
3. O=S(=O)(c1c[nH]cn1)N1CCN(c2ccc(CO[C@H]3CO[C@](Cn4ccnc4)(c4ccc(Cl)cc4Cl)OC3)cc2)CC1 [Example 500023]
4. CCS(=O)(=O)N1CCN(c2ccc(CO[C@H]3CO[C@](Cn4ccnc4)(c4ccc(Cl)cc4Cl)OC3)cc2)CC1 [Example 500021]
5. Clc1ccccc1[C@]1(Cn2ccnc2)OC[C@@H](OCc2ccc(-c3ccncc3)cc2)CO1 [Example 510017]

Result ::
12
12
14
200
440

# return IC50 for each item in the list
1. O=S(=O)(CCCCl)N1CCN(c2ccc(CO[C@H]3CO[C@](Cn4ccnc4)(c4ccc(Cl)cc4Cl)OC3)cc2)CC1 [Example 500017]
2. CC(C)S(=O)(=O)N1CCN(c2ccc(CO[C@H]3CO[C@](Cn4ccnc4)(c4ccc(Cl)cc4Cl)OC3)cc2)CC1 [Example 500020]

Result ::
1. 27
2. 25

====

- tested.on: recombinant CYP-17 (Homo sapiens, UniProt P05093)
- Sequence (P05093 whole entry, species assumed): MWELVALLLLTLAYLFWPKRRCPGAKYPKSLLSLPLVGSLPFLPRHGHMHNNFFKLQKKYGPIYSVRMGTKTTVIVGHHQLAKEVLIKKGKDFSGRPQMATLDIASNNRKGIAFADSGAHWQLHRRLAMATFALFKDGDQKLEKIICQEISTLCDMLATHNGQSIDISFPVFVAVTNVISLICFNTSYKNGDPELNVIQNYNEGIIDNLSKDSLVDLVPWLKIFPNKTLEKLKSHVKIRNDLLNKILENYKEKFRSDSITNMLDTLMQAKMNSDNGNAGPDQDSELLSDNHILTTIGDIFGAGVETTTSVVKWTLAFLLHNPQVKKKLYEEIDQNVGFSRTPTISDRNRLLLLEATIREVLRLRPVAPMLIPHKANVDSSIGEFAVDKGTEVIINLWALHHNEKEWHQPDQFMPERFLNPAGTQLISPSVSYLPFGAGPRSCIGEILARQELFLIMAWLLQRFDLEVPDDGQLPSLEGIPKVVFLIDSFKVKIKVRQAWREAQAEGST
- test.details: Cyp17 assay: AD293 cells over-expressing recombinant CYP-17, 3H-acetic acid release from [21-3H] 17α-hydroxyl-Pregnenolone
- Procedure: Cyp17 assay protocol: AD293 cells that stably over-express recombinant CYP-17 were seeded in 96 well plates coated with poly D-lysine (15,000 cell per well) and incubated at 37° C. for 24 hours in Dulbecco's Modified Eagle Medium (DMEM) with Fetal Bovine Serum (FBS) that is stripped of hormones by charcoal treatment. […] The aqueous layer is then separated and analyzed for the presence of ^3H-acetic acid using a Perkin Elmer Topcount NXT to determine IC50s of the compounds of the disclosure.
readout.type: log10 IC50 (log10 of the value in nM)
Transform log10 | Measure IC50 | Unit nM

CS(=O)(=O)N1CCN(c2ccc(CO[C@H]3CO[C@](Cn4ccnc4)(c4ccccc4Cl)OC3)cc2)CC1 [Example 500012]; 1.08
CCOC(=O)CNC(=O)N1CCN(c2ccc(CO[C@H]3CO[C@](Cn4ccnc4)(c4ccccc4Cl)OC3)cc2)CC1 [Example 510018]; 1.60
CC(=O)N1CCN(c2ccc(CO[C@H]3CO[C@](Cn4ccnc4)(c4ccccc4Cl)OC3)cc2)CC1 [Example 500003]; 2.16

# return log10 IC50 for each item in the list
1. Clc1ccccc1[C@]1(Cn2ccnc2)OC[C@@H](OCc2ccc(N3CCOCC3)cc2)CO1 [Example 500005]
2. COCCOC(=O)N1CCN(c2ccc(CO[C@H]3CO[C@@](Cn4ccnc4)(c4ccccc4Cl)OC3)cc2)CC1 [Example 510012]
3. O=S(=O)(c1cccnc1)N1CCN(c2ccc(CO[C@H]3CO[C@](Cn4ccnc4)(c4ccc(Cl)cc4Cl)OC3)cc2)CC1 [Example 500025]
4. CC(=O)N1CCN(c2ccc(CO[C@H]3CO[C@@](Cn4ccnc4)(c4ccc(Cl)cc4Cl)OC3)cc2)CC1 [Example 500019]
5. N#Cc1cccc(S(=O)(=O)N2CCN(c3ccc(CO[C@H]4CO[C@](Cn5ccnc5)(c5ccc(Cl)cc5Cl)OC4)cc3)CC2)c1 [Example 500016]

Result ::
1: 2.41; 2: 3.40; 3: 1.11; 4: 3.04; 5: 1.88

====

- tested.on: Cyp3A4 (Homo sapiens)
- Sequence (P08684 whole entry): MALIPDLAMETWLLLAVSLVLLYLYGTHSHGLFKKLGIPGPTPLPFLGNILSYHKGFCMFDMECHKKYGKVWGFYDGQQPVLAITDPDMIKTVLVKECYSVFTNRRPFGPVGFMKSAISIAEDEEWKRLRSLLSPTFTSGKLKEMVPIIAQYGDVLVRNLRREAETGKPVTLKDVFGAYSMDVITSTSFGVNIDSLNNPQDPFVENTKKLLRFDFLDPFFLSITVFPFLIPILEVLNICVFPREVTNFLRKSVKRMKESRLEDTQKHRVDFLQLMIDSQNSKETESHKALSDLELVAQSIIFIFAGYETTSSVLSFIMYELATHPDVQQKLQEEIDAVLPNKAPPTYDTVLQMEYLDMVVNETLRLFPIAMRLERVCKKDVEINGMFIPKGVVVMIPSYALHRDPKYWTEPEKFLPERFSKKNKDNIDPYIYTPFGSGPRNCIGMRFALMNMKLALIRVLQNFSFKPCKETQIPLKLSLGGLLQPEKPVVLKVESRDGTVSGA
- test.details: Cyp3A4 off-target counter screen
- Assay type: in vitro ADME
- assay.context: off-target enzyme
readout.type: IC50 (nM)
Numbers only, in nM.

Query :: Field request: IC50 | item: CC(=O)N1CCN(c2ccc(CO[C@H]3CO[C@](Cn4ccnc4)(c4ccc(Cl)cc4Cl)OC3)cc2)CC1 [drawing 112]
Result :: 109

====

Can you tell me pIC50 for the items I'm about to list?
- tested.on: recombinant CYP-21 (Homo sapiens, UniProt P08686)
- Sequence (P08686 1-495): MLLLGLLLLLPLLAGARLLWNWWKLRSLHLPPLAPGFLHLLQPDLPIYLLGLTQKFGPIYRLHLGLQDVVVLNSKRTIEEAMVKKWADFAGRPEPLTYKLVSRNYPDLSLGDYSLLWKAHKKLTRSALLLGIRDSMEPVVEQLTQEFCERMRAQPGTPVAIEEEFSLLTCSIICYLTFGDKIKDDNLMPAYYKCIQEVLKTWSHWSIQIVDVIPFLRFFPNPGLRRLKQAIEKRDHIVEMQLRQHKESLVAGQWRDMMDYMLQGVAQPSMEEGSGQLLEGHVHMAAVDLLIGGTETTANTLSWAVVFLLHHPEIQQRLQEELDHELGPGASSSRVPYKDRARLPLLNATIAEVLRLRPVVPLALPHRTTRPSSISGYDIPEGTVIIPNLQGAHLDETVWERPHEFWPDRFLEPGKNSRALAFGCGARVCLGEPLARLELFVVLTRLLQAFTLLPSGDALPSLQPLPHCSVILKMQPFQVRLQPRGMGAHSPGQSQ
- test.details: Cyp21 assay: AD293 cells over-expressing recombinant CYP-21, 11-deoxycortisol formation from 17α-OH Progesterone by LC/MS
Numbers only, as −log10 of the molar value.

Clc1ccccc1[C@]1(Cn2ccnc2)OC[C@@H](OCc2ccc(-c3ccncc3)cc2)CO1; 6.41
CC(=O)N1CCN(c2ccc(CO[C@H]3CO[C@](Cn4ccnc4)(c4ccc(Cl)cc4Cl)OC3)cc2)CC1 [Example 500015]; 6.68
Clc1ccccc1[C@]1(Cn2ccnc2)OC[C@@H](OCc2ccc(N3CCOCC3)cc2)CO1; 6.02

# return pIC50 for each item in the list
1. CN(C)C(=O)N1CCN(c2ccc(CO[C@H]3CO[C@](Cn4ccnc4)(c4ccccc4Cl)OC3)cc2)CC1
2. COCCOC(=O)N1CCN(c2ccc(CO[C@H]3CO[C@@](Cn4ccnc4)(c4ccccc4Cl)OC3)cc2)CC1
3. Clc1ccccc1[C@]1(Cn2ccnc2)OC[C@H](OCc2ccc(N3CCOCC3)cc2)CO1
4. N#Cc1cccc(S(=O)(=O)N2CCN(c3ccc(CO[C@H]4CO[C@](Cn5ccnc5)(c5ccc(Cl)cc5Cl)OC4)cc3)CC2)c1
5. CS(=O)(=O)N1CCN(c2ccc(CO[C@H]3CO[C@@](Cn4ccnc4)(c4ccccc4Cl)OC3)cc2)CC1
6. CC(=O)N1CCN(c2ccc(CO[C@H]3CO[C@](Cn4ccnc4)(c4ccc(Cl)cc4Cl)OC3)cc2)CC1 [drawing 112]
7. CS(=O)(=O)N1CCN(c2ccc(CO[C@H]3CO[C@](Cn4ccnc4)(c4ccccc4Cl)OC3)cc2)CC1

Result ::
1: 6.10; 2: 6.10; 3: 5.32; 4: 6.38; 5: 5.60; 6: 6.68; 7: 5.82

All values here come from patent US20160244436A1.
